Experiment: Permeability and efflux ratio in Caco-2 cells
Format: in vitro ADME
Conditions: human
Below is a list of entries, each paired with its recorded Papp B→A value.
Measurement type: Papp B→A (nm/s)

# Molecule, Measurement type, Reported
measured = [
    ("C=CC(=O)Nc1cc(N(C(=O)NCc2ccccc2)[C@H]2CC[C@H](Nc3ccc(C#N)cn3)CC2)ccc1-c1ccc(=O)n(C)c1 [Compound 14a]", "Papp B→A", 52.5),
    ("C=CC(=O)Nc1cccc(N(C(=O)NCc2ccccc2)[C@H]2CC[C@H](Nc3ccc(C#N)cn3)CC2)c1 [Compound 14b]", "Papp B→A", 137),
]

* * *

Test: Pharmacokinetics study in mice
Assay type: in vivo, ICR mice
Settings: both sexes, ICR, mouse, plasma, ip, i.p. 2.5 mg/kg

# Molecule, Tmax [min]
data = [
    ("C=CC(=O)Nc1cc(N(C(=O)NCc2ccccc2)[C@H]2CC[C@H](Nc3ccc(C#N)cn3)CC2)ccc1N1CCC(N(C)C)CC1", 19.8),
]

Every entry's value here was drawn from paper PMC12147761.
